# Tested on: rhinovirus B14
# Test: Antiviral activity against Human rhinovirus 14 infected in H1-HeLa cells assessed as reduction in viral infection measured after 2 days by XTT dye reduction method
# Type: functional, organism-based
# Assay Conditions: Rhinovirus B, 48 h
Reported Property: EC50 (nM)

- CCOC(=O)/C=C/[C@H](CCC(N)=O)NC(=O)[C@H](Cc1ccccc1)NC(=O)[C@H](CC(C)C)NC(=O)OCc1ccccc1: 540

---

# Measured Target: Neutrophil elastase (Homo sapiens, UniProt P08246)
# Sequence (P08246 whole entry): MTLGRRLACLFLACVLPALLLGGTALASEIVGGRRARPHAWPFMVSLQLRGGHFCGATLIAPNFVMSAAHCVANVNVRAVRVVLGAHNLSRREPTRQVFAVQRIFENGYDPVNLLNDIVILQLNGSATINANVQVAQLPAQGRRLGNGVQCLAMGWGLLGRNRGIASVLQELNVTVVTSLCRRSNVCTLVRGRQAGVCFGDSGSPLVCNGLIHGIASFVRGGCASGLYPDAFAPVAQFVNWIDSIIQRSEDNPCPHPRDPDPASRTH
# Test: Inhibition of human neutrophil elastase using methoxysuccinyl-Ala-Ala-Pro-Val-pnitroanilide as substrate by spectrophotometric analysis
Reported Property: Ki (nM)

- CC(C)C(NC(=O)[C@@H]1CCCN1C(=O)[C@@H](NC(=O)c1ccc(C(=O)NS(=O)(=O)c2ccc(Cl)cc2)cc1)C(C)C)C(N)=O (stereo partly specified): 0.5

---

# System: rhinovirus B14
# Test: Antiviral activity against Human rhinovirus 14 infected in H1-HeLa cells assessed as reduction in viral infection measured after 5 days by XTT dye reduction method
# Type: functional, organism-based
# Assay Conditions: Rhinovirus B, 120 h
pEC50: −log10 of the molar value.
Reported Property: pEC50

* CCOC(=O)/C=C/[C@H](C[C@@H]1CCNC1=O)NC(=O)[C@@H](CC(=O)[C@@H](NC(=O)c1cc(C)on1)C(C)C)Cc1ccc(F)cc1 | 7.89
